# run description: qHTS RealTime-Glo MT Cell Viability Assay in HEK293 cells - 8 hour (AID 1224887); further: top concentration of the series differs between compounds; nearly all actives have a fitted effect of over 50% in size
# setup conditions: RealTime-Glo luminescence; series mostly up to 76.8 µM
Records with an inconclusive call do not appear. Activity calls are given as the source filed them. The call rests on the fitted dose curve; in most records, active means well fitted cell-killing curve with a large enough effect in the repeat runs; inconclusive means weak or mixed curves, or effect the other way; inactive means flat fitted curve, though single readings scatter.
measure name: outcome

molecule=CC(C)(Cl)Cl result=inactive
molecule=O=S(=O)(c1ccc(O)cc1)c1ccc(O)cc1 result=inactive
molecule=Cc1ccc(N)cc1N result=inactive
molecule=ClCCBr result=inactive
molecule=C1CN2CCN1CC2 result=inactive

Would you mind telling me what outcome value was observed for CCOP(=S)(OCC)SCCSCC ?
inactive

Would you mind telling me what outcome value was observed for O=c1[nH]c(=O)[nH]c(=O)[nH]1 ?
inactive

Would you mind telling me what outcome value was observed for O=Cc1cccc(Oc2ccccc2)c1 ?
inactive

Would you mind telling me what outcome value was observed for CCCCCCCCCCCC#N ?
inactive

Would you mind telling me what outcome value was observed for CC(C#N)CCC#N (stereo not given) ?
inactive

Would you mind telling me what outcome value was observed for CC(Oc1ccc(Cl)cc1Cl)C(=O)O (stereo not given) ?
inactive

Would you mind telling me what outcome value was observed for CCNc1nc(NC(C)C)nc(SC)n1 ?
inactive

Would you mind telling me what outcome value was observed for Nc1c(Cl)c(Cl)nc(C(=O)O)c1Cl ?
inactive

Would you mind telling me what outcome value was observed for CN(C)[C@@H]1C(=O)C(C(N)=O)=C(O)[C@@]2(O)C(=O)C3=C(O)c4c(O)cccc4[C@@](C)(O)[C@H]3C[C@@H]12 ?
inactive

Would you mind telling me what outcome value was observed for CCCCCCCCCl ?
inactive

====

# run description: qHTS assay for identifying genotoxic compounds that show differential cytotoxicity against isogenic chicken DT40 cell lines with known DNA damage response pathways - Rev3 mutant cell line (AID 743014); further: nearly all actives have a fitted effect of over 55% in size
# setup conditions: chicken DT40 Rev3-/- viability, CellTiter-Glo, 40 h; series mostly up to 68.4 µM
# Excerpt: National Center for Advancing Translational Sciences [NCATS] NIH Chemical Genomics Center [NCGC] U.S. Environmental Protection Agency [EPA] National Institutes of Environmental Health Sciences [NIEHS] National Toxicology Program [NTP] U.S. Food and Drug Administration [FDA] DNA repair pathways play a critical role in cellular homeostasis by repairing DNA damage induced by endogenous processes and xenobiotics. […]
Inconclusive results are not listed. The source made the active and inactive calls. The call rests on the fitted dose curve; in most records, active means well fitted cell-killing curve with a large enough effect in the repeat runs; inconclusive means weak or mixed curves, or effect the other way; inactive means no such curve, though single readings can be large or run the other way.
Pick one: active, inactive

Reference set (8 entries):
compound="C1CC2OC2CC1C1CO1 (centres undefined)" answer_label=inactive
compound=Oc1ccccc1Cl answer_label=inactive
compound=CCCN(CCC)c1c([N+](=O)[O-])cc(C(F)(F)F)cc1[N+](=O)[O-] answer_label=inactive
compound=c1ccc(OP(Oc2ccccc2)Oc2ccccc2)cc1 answer_label=inactive
compound=CON(C)C(=O)Nc1ccc(Cl)c(Cl)c1 answer_label=inactive
compound=Cc1ccc([N+](=O)[O-])cc1C answer_label=inactive
compound=COC(=O)NS(=O)(=O)c1ccc(N)cc1 answer_label=inactive
compound=Cc1cc(-c2cc(C)c(N)c(C)c2)cc(C)c1N answer_label=inactive

What is the recorded call for this compound in the test? CC(=O)C=C(C)C
inactive

What is the recorded call for this compound in the test? NCCc1ccc(O)cc1
inactive

What is the recorded call for this compound in the test? CCN(CC)c1ccccc1
inactive

What is the recorded call for this compound in the test? c1ccc2c(c1)Oc1ccccc1O2
inactive

What is the recorded call for this compound in the test? CCCCN(CCCC)SN(C)C(=O)Oc1cccc2c1OC(C)(C)C2
active

What is the recorded call for this compound in the test? CCC[CH2][Sn]([Cl])([Cl])[Cl]
inactive

====

# run description: qHTS assay to identify small molecule agonists of the AP-1 signaling pathway (AID 1159526)
# setup conditions: ME-180 (cervical carcinoma) AP-1-bla reporter, beta-lactamase FRET ratio, 5 h; series mostly up to 76.8 µM
Results filed as inconclusive are left out. Activity calls are given as the source filed them. Calls come from the whole dose curve.
measure name: Potency

compound=O=NN1CCCCCCC1 result=inactive
compound=CC(C)(C)OOC(=O)c1ccccc1 result=inactive
compound=Oc1ccccc1Cl result=inactive
compound=CCN(CC)CCO result=inactive

Would you mind telling me what Potency value was observed for CCN(CC)c1ccccc1 ?
inactive

Would you mind telling me what Potency value was observed for CC1OC(C)OC(C)O1 (stereo not given) ?
inactive

Would you mind telling me what Potency value was observed for CN(N=O)c1ccccc1 ?
inactive

Would you mind telling me what Potency value was observed for Cc1cccc([N+](=O)[O-])c1 ?
inactive

====

# target: Aromatase (Homo sapiens)
# run description: qHTS assay to identify aromatase inhibitors (AID 743083); further: nearly all actives have a fitted effect of over 55% in size
# setup conditions: MCF-7 aro ERE, testosterone-driven ERE luciferase, 24 h; series mostly up to 70.3 µM
Results filed as inconclusive are left out. Calls of active or inactive are those of the source. Calls follow the shape of the dose curve; as a rule, active = well fitted inhibition curve with a large enough effect in the repeat runs; inconclusive = weak or mixed curves; inactive = no such curve, though single readings can be large or run the other way.
Pick one: active, inactive

mol_smiles=CN(C)CCO answer_label=inactive
mol_smiles=CON(C)C(=O)Nc1ccc(Cl)c(Cl)c1 answer_label=inactive
mol_smiles=COC(=O)NS(=O)(=O)c1ccc(N)cc1 answer_label=inactive

What is the recorded call for this compound in the test? CCCCCCCCCCCC#N
inactive

What is the recorded call for this compound in the test? CCC12COCN1COC2
inactive

What is the recorded call for this compound in the test? CCCN(CCC)N=O
inactive

What is the recorded call for this compound in the test? O=[N+]([O-])c1ccc([As](=O)(O)O)cc1
inactive

What is the recorded call for this compound in the test? Nc1ccc(Oc2ccc(N)cc2)cc1
active

====

# run description: qHTS assay to identify small molecule antagonists of the vitamin D receptor (VDR) signaling pathway - cell viability counter screen (AID 743225); further: nearly all actives have a fitted effect of over 50% in size
# setup conditions: VDR-bla HEK293T viability, CellTiter-Glo luminescence, 16 h; series mostly up to 61 µM
Inconclusive results are not listed. Calls of active or inactive are those of the source. The call rests on the fitted dose curve; in most records, active means well fitted cell-killing curve with a large enough effect in the repeat runs; inconclusive means weak or mixed curves, or effect the other way; inactive means no such curve, though single readings can be large or run the other way.
measure name: outcome

Solved cases below.
compound=COC(=O)NC(=S)Nc1ccccc1NC(=S)NC(=O)OC measure_name=outcome result=inactive
compound="CC(Oc1ccc(Cl)cc1Cl)C(=O)O (stereo not drawn)" measure_name=outcome result=inactive
compound=Clc1cccc(Cl)c1Cl measure_name=outcome result=inactive
compound=CC(C)(C)OOC(C)(C)C measure_name=outcome result=inactive
compound=CC(C)OC(=O)Nc1cccc(Cl)c1 measure_name=outcome result=inactive
compound=O=NN1CCCC1 measure_name=outcome result=inactive
compound=O=[N+]([O-])c1ccc([As](=O)(O)O)cc1 measure_name=outcome result=inactive
compound=C=CCO measure_name=outcome result=inactive
compound="CC(Br)C(=O)O (stereo not drawn)" measure_name=outcome result=inactive
compound=CCNc1nc(NC(C)C)nc(SC)n1 measure_name=outcome result=inactive

Would you mind telling me what outcome value was observed for CCNc1nc(NC(C)(C)C)nc(SC)n1 ?
inactive

Would you mind telling me what outcome value was observed for c1ccc2c(c1)Oc1ccccc1O2 ?
inactive

Would you mind telling me what outcome value was observed for CC(NC(C)(C)C)C(=O)c1cccc(Cl)c1 (stereo not drawn) ?
inactive

Would you mind telling me what outcome value was observed for CCOP(OCC)OCC ?
inactive

Would you mind telling me what outcome value was observed for CC1OC(C)OC(C)O1 (stereo not drawn) ?
inactive

Would you mind telling me what outcome value was observed for [N-]=[N+]=[N-] ?
inactive

Would you mind telling me what outcome value was observed for C=CC(N)=O ?
inactive

Would you mind telling me what outcome value was observed for CCCCCCCCCCCC#N ?
inactive

Would you mind telling me what outcome value was observed for c1ccc(OP(Oc2ccccc2)Oc2ccccc2)cc1 ?
inactive

Would you mind telling me what outcome value was observed for O=C(O)c1ccccn1 ?
inactive

====

# run description: qHTS assay to identify small molecule agonists of the peroxisome proliferator-activated receptor delta (PPARd) signaling pathway - cell viability counter screen (AID 743211); further: nearly all actives have a fitted effect of over 55% in size
# setup conditions: PPARd-bla HEK293H viability, CellTiter-Glo luminescence, 17 h; series mostly up to 62.6 µM
Records with an inconclusive call do not appear. The source made the active and inactive calls. Calls come from the whole dose curve; as a rule, active = well fitted cell-killing curve with a large enough effect in the repeat runs; inconclusive = weak or mixed curves; inactive = no such curve, though single readings can be large or run the other way.
measure name: outcome

Solved cases below.
molecule=CN(N=O)c1ccccc1 result=inactive
molecule=Cc1ccc(N)cc1Cl result=inactive
molecule="CCCC1COC(Cn2cncn2)(c2ccc(Cl)cc2Cl)O1 (stereo not given)" result=inactive
molecule=OC(O)C(Cl)(Cl)Cl result=inactive
molecule=O=NN1CCCCCCC1 result=inactive

Would you mind telling me what outcome value was observed for Nc1c(Cl)c(Cl)nc(C(=O)O)c1Cl ?
inactive

Would you mind telling me what outcome value was observed for CC(NC(C)(C)C)C(=O)c1cccc(Cl)c1 (stereo not given) ?
inactive

Would you mind telling me what outcome value was observed for O=c1[nH]c(=O)[nH]c(=O)[nH]1 ?
inactive

Would you mind telling me what outcome value was observed for C=CCO ?
inactive

Would you mind telling me what outcome value was observed for Clc1ccccc1Cl ?
inactive

Would you mind telling me what outcome value was observed for O=S(=O)(c1ccc(Cl)cc1)c1cc(Cl)c(Cl)cc1Cl ?
inactive

Would you mind telling me what outcome value was observed for COC(=O)NC(=S)Nc1ccccc1NC(=S)NC(=O)OC ?
inactive

Would you mind telling me what outcome value was observed for O=Cc1cccc(Oc2ccccc2)c1 ?
inactive

Would you mind telling me what outcome value was observed for Cc1cccc([N+](=O)[O-])c1 ?
inactive

Would you mind telling me what outcome value was observed for CON(C)C(=O)Nc1ccc(Cl)c(Cl)c1 ?
inactive
